# measured-target: T1, human big-endothelin-1 (big-ET-1) (human)
# T1 construct: 38 amino acid peptide; also called human big-ET-1; hBig-ET-1
# T1 peptide: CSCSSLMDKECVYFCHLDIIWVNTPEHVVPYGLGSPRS
# assay-text: SPR (Biacore T200), 37 C, mAb capture, peptide analyte
measured-metric: kon (M⁻¹ s⁻¹)
Respond with the bare value in M⁻¹ s⁻¹.

Find the recorded kon belonging to H4H6345P (antibody, V domains shown, Human IgG4 Fc (prefix H4H)) VH: EVQLVESGGGLVQPGGSLRLSCAASGFIFSSYAMTWVRQAPGKGLEWVSAISGSGVSTYYADSVKGRFTISRDNSKNTLYLQMNSLRIEDTAVYYCGKARTGTHAFDIWGQGTMVTVSS VL: DIQMTQSPSTLSASVGDRVTITCRASQSISRWLAWYQQKPGKAPKLLIYKASSLETGVPSRFSGSGSGTEFTLTISSLQPDDFGTYYCQQYNSYSSFGPGTKVDIK and report it.
663000

Now the same for H4H6329P (antibody, V domains shown, Human IgG4 Fc (prefix H4H)) VH: QVQLVESGGGVVQPGRSLRLSCAASGFTFGSYGMHWVRQAPGKGLEWVAVIWYDGSDEYYTDSVKGRFTVSRDNSKYTLYLQMNSLRADDTAVYYCARDGYRTRGNYFDYWGQGTLVTVSS VL: DVVMTQSPLSLPVALGQPASISCRSSQSLVYSDGNTYLNWFQQRPGQSPRRLIYKVSNRDSGVPDRFGGSGSGTDFTLKISRVEAEDVGLYYCMQGTHWPPTFGGGTKVEIK
595000

Now the same for H4H6492N2 (antibody, V domains shown, Human IgG4 Fc (prefix H4H)) VH: EVQLVESGGGLVKPGGSLRVSCVASGFTFSNAWMTWVRQTPGKGLEWVGRIKSRTDGGTVDYVAPVKGRFTISRDDSKNTLYLQMNSLKAEDTAVYYCRADLDYWGQGTLVTVSS VL: DVVMTQSPLSLPVSLGQPASISCRSSQSLVHSDGITYLNWFQQRPGQSPRRLIYKISNRDSGVPDRFSGSGSGTDFTLKFSRVEAEDVGVYFCMQGTHWPYTFGQGTKLEIK
424000

Taken from patent US20130216547A1.
